Target: EGFR L858R/T790M (Homo sapiens (Human), UniProt P00533, L858R/T790M)
Sequence (P00533 25-1210 T790M/L858R): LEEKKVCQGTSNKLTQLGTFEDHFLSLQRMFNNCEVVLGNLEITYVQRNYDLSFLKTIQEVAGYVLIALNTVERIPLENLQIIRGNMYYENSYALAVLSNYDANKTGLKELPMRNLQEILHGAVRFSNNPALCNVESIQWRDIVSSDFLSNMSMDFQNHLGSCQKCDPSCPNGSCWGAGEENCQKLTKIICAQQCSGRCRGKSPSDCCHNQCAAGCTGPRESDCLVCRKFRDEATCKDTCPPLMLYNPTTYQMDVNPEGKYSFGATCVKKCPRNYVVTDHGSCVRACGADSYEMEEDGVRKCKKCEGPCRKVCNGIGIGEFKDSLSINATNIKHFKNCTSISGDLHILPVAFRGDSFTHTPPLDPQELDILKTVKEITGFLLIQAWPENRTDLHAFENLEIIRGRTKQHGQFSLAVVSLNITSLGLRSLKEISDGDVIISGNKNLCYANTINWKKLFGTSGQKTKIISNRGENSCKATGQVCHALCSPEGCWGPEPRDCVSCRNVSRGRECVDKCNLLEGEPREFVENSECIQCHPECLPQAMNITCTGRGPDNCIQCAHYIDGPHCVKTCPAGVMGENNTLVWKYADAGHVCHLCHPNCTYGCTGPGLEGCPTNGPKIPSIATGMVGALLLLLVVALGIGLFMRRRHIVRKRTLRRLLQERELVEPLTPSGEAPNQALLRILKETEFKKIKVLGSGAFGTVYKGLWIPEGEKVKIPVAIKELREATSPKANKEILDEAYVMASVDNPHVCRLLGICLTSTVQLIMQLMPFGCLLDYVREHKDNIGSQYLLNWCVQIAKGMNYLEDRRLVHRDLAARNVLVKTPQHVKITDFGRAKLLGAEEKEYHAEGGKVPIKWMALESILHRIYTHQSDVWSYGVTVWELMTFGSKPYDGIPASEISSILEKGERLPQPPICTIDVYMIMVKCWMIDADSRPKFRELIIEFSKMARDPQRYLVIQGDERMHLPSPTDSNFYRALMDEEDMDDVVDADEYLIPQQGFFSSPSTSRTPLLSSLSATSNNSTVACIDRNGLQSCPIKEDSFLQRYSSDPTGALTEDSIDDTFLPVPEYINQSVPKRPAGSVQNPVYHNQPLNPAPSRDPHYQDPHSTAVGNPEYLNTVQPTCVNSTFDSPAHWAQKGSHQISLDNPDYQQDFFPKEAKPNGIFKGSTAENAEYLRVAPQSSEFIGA
Assay: HTRF-based EGFR biochemical assay (L858R/T790M)
Conditions: 100 μM ATP, enzyme 0.02 nM
Counter-ions that a name gives are not always drawn.
measured attribute: IC50 (nM)
Kindly provide the numeric value in nM only, without the unit symbol.

Check out these entries, answers already filled in.
GET /value?item= CN1CCC(c2ccc(-c3ccc4ncn(C(c5nc6ccccc6[nH]5)c5cc(F)ccc5O)c(=O)c4c3F)cc2F)CC1 (stereo not drawn) [Compound 007, hydrochloride] &field=IC50 returns 0.4

GET /value?item= CN1CCC2(c3ccc(-c4ccc5c(=O)n(C(c6nc7ccccc7[nH]6)c6cc(F)ccc6O)ccc5c4)cc3)CC2C1 (stereo not drawn) [Compound 108, dihydrochloride] &field=IC50 returns 2

New cases:
GET /value?item= CN1CCC(c2ccc(-c3ccc4c(c3)C(=O)N(C(c3nc5cccnc5[nH]3)c3cc(F)ccc3O)C4)cc2)CC1 (stereo not drawn) [Compound 014, hydrochloride] &field=IC50 returns 0.3

* * *

Target: EGFR L858R (Homo sapiens (Human), UniProt P00533, L858R)
Sequence (P00533 25-1210 L858R): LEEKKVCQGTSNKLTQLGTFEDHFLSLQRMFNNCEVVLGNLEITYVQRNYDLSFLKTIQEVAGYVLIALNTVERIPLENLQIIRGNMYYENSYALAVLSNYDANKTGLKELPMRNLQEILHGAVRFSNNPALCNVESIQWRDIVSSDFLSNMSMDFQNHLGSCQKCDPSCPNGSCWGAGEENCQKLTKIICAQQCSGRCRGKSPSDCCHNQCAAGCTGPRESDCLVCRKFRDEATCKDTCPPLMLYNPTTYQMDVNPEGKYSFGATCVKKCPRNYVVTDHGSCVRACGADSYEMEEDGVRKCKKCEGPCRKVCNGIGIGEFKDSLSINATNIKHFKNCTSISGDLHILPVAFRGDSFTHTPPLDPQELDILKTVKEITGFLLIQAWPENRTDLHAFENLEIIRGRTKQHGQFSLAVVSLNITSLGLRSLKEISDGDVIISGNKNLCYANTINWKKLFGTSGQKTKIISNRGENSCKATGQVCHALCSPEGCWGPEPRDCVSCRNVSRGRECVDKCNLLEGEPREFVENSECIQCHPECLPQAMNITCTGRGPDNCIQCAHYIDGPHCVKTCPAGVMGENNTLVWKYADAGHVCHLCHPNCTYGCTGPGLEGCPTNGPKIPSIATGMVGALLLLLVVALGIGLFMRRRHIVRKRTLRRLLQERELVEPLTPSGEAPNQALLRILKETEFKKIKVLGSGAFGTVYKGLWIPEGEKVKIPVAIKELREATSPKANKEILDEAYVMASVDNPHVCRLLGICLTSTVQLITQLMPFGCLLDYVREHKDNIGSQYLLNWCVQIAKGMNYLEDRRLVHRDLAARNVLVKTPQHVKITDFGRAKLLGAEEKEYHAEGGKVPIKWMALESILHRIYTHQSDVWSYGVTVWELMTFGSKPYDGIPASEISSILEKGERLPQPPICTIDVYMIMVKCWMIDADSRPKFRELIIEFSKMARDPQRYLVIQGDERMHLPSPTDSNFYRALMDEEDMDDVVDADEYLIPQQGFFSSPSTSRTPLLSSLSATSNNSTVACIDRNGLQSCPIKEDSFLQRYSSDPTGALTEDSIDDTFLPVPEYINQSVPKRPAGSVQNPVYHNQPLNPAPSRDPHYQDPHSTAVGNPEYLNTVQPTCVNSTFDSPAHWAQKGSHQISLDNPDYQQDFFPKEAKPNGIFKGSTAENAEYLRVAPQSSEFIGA
Assay: HTRF-based EGFR biochemical assay (L858R)
Settings: 100 μM ATP, enzyme 0.1 nM
Where a name gives a salt, the structure may show the parent alone.
measured attribute: IC50
Your answer should be a number followed by the unit of measure.

Check out these entries, answers already filled in.
GET /value?item= Cc1cnc(C(c2cc(F)ccc2O)N2Cc3ccc(-c4ccc(C5CCN(C)CC5)cc4)c(F)c3C2=O)[nH]1 (stereo not drawn) &field=IC50 returns 3 nM

GET /value?item= CN1CCC(c2ccc(-c3ccc4c(c3)C(=O)N(C(c3nc5ccccc5[nH]3)c3n[nH]c5c3CCC5)C4)cc2)CC1 (stereo not drawn) &field=IC50 returns 24 nM

GET /value?item= Cc1c[nH]c([C@H](c2cc(F)ccc2O)N2Cc3ccc(-c4ccc(C5CCN(C)CC5)cc4)c(F)c3C2=O)n1 (single isomer, unassigned) &field=IC50 returns 92 nM

GET /value?item= Cc1ccc2[nH]c(C(c3cc(F)ccc3O)N3Cc4ccc(-c5ccc(C6CCN(C)CC6)cc5)cc4C3=O)nc2c1 (stereo not drawn) &field=IC50 returns 21 nM

GET /value?item= CN1CC(c2ccc(-c3ccc4c(c3)C(=O)N(C(c3nc5ccccc5[nH]3)c3cc(F)ccc3O)C4)cc2)C1 (stereo not drawn) &field=IC50 returns 6 nM

New cases:
GET /value?item= Cc1c(-c2ccc(C3CCN(C)CC3)cc2)ccc2cn(C(c3nc4ccccc4[nH]3)c3cc(F)ccc3O)nc12 (stereo not drawn) [Compound 096, dihydrochloride] &field=IC50 returns 3 nM

* * *

Target: EGFR L858R/T790M (Homo sapiens (Human), UniProt P00533, L858R/T790M)
Experiment: HTRF-based EGFR biochemical assay (L858R/T790M)
Settings: 100 μM ATP, enzyme 0.02 nM
Structures can show the parent of a compound that is named as a salt.
// reported pIC50 for each item listed
Interpret pIC50 as the negative base-10 log of the concentration measured in mol/L.

Check out these entries, answers already filled in.
GET /value?item= Cc1ccc2[nH]c(C(c3cc(F)ccc3O)N3Cc4ccc(-c5ccc(C6CCN(C)CC6)cc5)cc4C3=O)nc2c1 (stereo not drawn) [Compound 050, formic acid] &field=pIC50 returns 8.70

GET /value?item= CN1CCC(c2ccc(-c3ccc4ncn(C(c5nc6ccccc6[nH]5)c5cc(F)ccc5O)c(=O)c4c3C(F)(F)F)cc2)CC1 (stereo not drawn) [Compound 076, dihydrochloride] &field=pIC50 returns 8.70

Here's the next entry for you.
GET /value?item= CN1CCC(c2ccc(-c3ccc4c(c3)C(=O)N([C@@H](c3nc5ccccc5[nH]3)c3cc(F)ccc3O)C4)cc2)CC1 (single isomer, unassigned) [Compound 038] &field=pIC50 returns 8.22

* * *

Target: EGFR L858R/T790M (Homo sapiens (Human), UniProt P00533, L858R/T790M)
Experiment: HTRF-based EGFR biochemical assay (L858R/T790M)
Details: 100 μM ATP, enzyme 0.02 nM
Protocol: Example 25: HTRF-Based EGFR Biochemical Assays EGFR biochemical activity measurements were carried out using the homogeneous time-resolved fluorescence (HTRF) assay (Cisbio), inhibitors and DMSO normalizations were first dispensed to empty black low-volume 384-well plates (Corning) with 0300 digital liquid dispenser (HP). All reactions were carried out at room temperature and solutions were added to plates with a Multidrop Combi Reagent Dispenser (ThermoFisher). […]
Structures can show the parent of a compound that is named as a salt.
measured attribute: IC50 (nM)
Kindly provide the numeric value in nM only, without the unit symbol.

GET /value?item= CN1CCC(c2ccc(-c3ccc4c(c3)C(=O)N(C(c3nc5cc(F)ccc5[nH]3)c3cc(F)ccc3O)C4)cc2)CC1 (stereo not drawn) [Compound 046, formic acid] &field=IC50 returns 0.7

GET /value?item= CN1CCC(c2ccc(-c3ccc4ncn(C(c5nc6ccccc6[nH]5)c5cc(F)ccc5O)c(=O)c4c3F)cc2)CC1 (stereo not drawn) [Compound 004, 2,2,2-trifluoroacetate] &field=IC50 returns 0.4

GET /value?item= CN1CCC(c2ccc(-c3cc4nn(C(c5nc6ccccc6[nH]5)c5cc(F)ccc5O)cc4cc3O)cc2)CC1 (stereo not drawn) [Compound 097] &field=IC50 returns 36

GET /value?item= CN1CCC(F)(c2ccc(-c3ccc4c(c3)C(=O)N(C(c3nc5ccccc5[nH]3)c3cc(F)ccc3O)C4)cc2)CC1 (stereo not drawn) [Compound 016, hydrochloride] &field=IC50 returns 0.7

GET /value?item= CN1CCC(c2ccc(-c3ccc4c(c3)C(=O)N(C(c3nc5cncnc5[nH]3)c3cc(F)ccc3O)C4)cc2)CC1 (stereo not drawn) [Compound 018, hydrochloride] &field=IC50 returns 5

Here's the next entry for you.
GET /value?item= CN1CCC(c2ccc(-c3ccc4c(c3)C(=O)N([C@H](c3nc5ccccc5[nH]3)c3cc(F)ccc3O)C4)cc2)CC1 (single isomer, unassigned) [Compound 023] &field=IC50 returns 1

* * *

Biological target: EGFR L858R/T790M (Homo sapiens (Human), UniProt P00533, L858R/T790M)
Assay: HTRF-based EGFR biochemical assay (L858R/T790M)
Conditions: 100 μM ATP, enzyme 0.02 nM
Counter-ions that a name gives are not always drawn.
measured attribute: log10 IC50 (log10 of the value in nM)
The figures below represent log10 of IC50, where IC50 is stated in nM.

GET /value?item= CN1CCC(c2ccc(-c3ccc4ccn(C(c5ccccc5)c5nc6ccccc6[nH]5)c(=O)c4c3F)cc2)CC1 (stereo not drawn) [Compound 071] &field=log10 IC50 returns 1.30

GET /value?item= CN1CCC(c2ccc(-c3ccc4c(c3)C(=O)N(C(c3cccc(F)c3)c3nc5ccccc5[nH]3)C4)cc2)CC1 (stereo not drawn) [Compound 026] &field=log10 IC50 returns 0.85

GET /value?item= Cc1c(-c2ccc(C3CCN(C)CC3)cc2)ccc2c1C(=O)N(C(c1nc3ccccc3[nH]1)c1cc(F)ccc1O)C2 (stereo not drawn) [Compound 082, dihydrochloride] &field=log10 IC50 returns -0.22

GET /value?item= CN1CCC(c2ccc(-c3cc(F)c4c(=O)n(C(c5nc6ccccc6[nH]5)c5cc(F)ccc5O)ccc4c3)cc2F)CC1 (stereo not drawn) [Compound 111, dihydrochloride] &field=log10 IC50 returns -0.22

GET /value?item= Cn1cc(-c2ccc(-c3ccc4c(c3)C(=O)N(C(c3nc5ccccc5[nH]3)c3cc(F)ccc3O)C4)cc2)cn1 (stereo not drawn) [Compound 058, dihydrochloride] &field=log10 IC50 returns 1.08

GET /value?item= CN1CCC(c2ccc(-c3ccc4cn(C(c5nc6ccccc6[nH]5)c5cc(F)ccc5O)nc4c3)cc2)CC1 (stereo not drawn) [Compound 100, trifluoroacetate] &field=log10 IC50 returns 0.60

GET /value?item= [2H]C(c1nc2ccccc2[nH]1)(c1cc(F)ccc1O)N1Cc2ccc(-c3ccc(C4CCN(C)CC4)cc3)cc2C1=O (stereo not drawn) [Compound 036] &field=log10 IC50 returns -0.15

* * *

// reported IC50 for each item listed
Molecular target: EGFR L858R/T790M (Homo sapiens (Human), UniProt P00533, L858R/T790M)
Assay: HTRF-based EGFR biochemical assay (L858R/T790M)
Settings: 100 μM ATP, enzyme 0.02 nM
Structures can show the parent of a compound that is named as a salt.
Kindly provide the numeric value in nM only, without the unit symbol.

GET /value?item= Nc1ccc(C#Cc2ccc3c(c2)C(=O)N(C(c2nc4ccccc4[nH]2)c2cc(F)ccc2O)C3)cn1 (stereo not shown) &field=IC50 returns 6

GET /value?item= CN1CCC(c2ccc(-c3ccc4c(c3)C(=O)N(C(c3nc5cccnc5[nH]3)c3n[nH]c5c3CCC5)C4)cc2)CC1 (stereo not shown) &field=IC50 returns 8

GET /value?item= CN1CCC(c2ccc(-c3ccc4ncn(C(c5cccc(F)c5)c5nc6ccccc6[nH]5)c(=O)c4c3F)cc2)CC1 (stereo not shown) [Compound 005, 2,2,2-trifluoroacetate] &field=IC50 returns 1

GET /value?item= CN1CCC(c2ccc(-c3ccc4c(=O)n(C(c5nc6ccccc6[nH]5)c5cc(F)ccc5O)ccc4c3)cc2F)CC1 (stereo not shown) [Compound 109, dihydrochloride] &field=IC50 returns 2

GET /value?item= CN1CCC(c2ccc(-c3cnc4c(c3)C(=O)N(C(c3nc5ccccc5[nH]3)c3cc(F)ccc3O)C4)cc2)CC1 (stereo not shown) &field=IC50 returns 4

New cases:
GET /value?item= CN1CCC(c2ccc(-c3ccc4c(c3)C(=S)N([C@@H](c3nc5ccccc5[nH]3)c3cc(F)ccc3O)C4)cc2)CC1 (single isomer, unassigned) &field=IC50 returns 0.6

GET /value?item= CN1CCC(c2ccc(-c3ccc4c(c3)C(=O)N(C(c3nc5ccccc5[nH]3)c3cc(F)ccc3O)C4)c(F)c2)CC1 (stereo not shown) &field=IC50 returns 0.6

GET /value?item= CN1CCC(c2ccc(-c3ccc4c(c3)C(=O)N(C(c3ccn[nH]3)c3cc(F)ccc3O)C4)cc2)CC1 (stereo not shown) &field=IC50 returns 18
